Just for reference, ChEMBL document CHEMBL3259571 is where these values come from.

Organism: Mus musculus
assayProcedure: Selectivity ratio of Ki for GST-tagged mouse PKC-delta C1B domain P11R mutant to Kd for GST-tagged full-length mouse PKC-delta C1B domain
experimentalEndpoint: Selectivity ratio

Examples from the recorded data:
| compound | recordedValue |
| --- | --- |
| CC(C)C(CC(=O)OCC1(CO)C/C(=C/c2ccc(C(=O)O)cc2)C(=O)O1)C(C)C (stereo unspecified) | 1.09 |
| CC(C)CC(C/C=C1\CC(CO)(COC(=O)C(C)(CO)CO)OC1=O)CC(C)C (stereo unspecified) | 2.61 |

A: CC(C)C(CC(=O)OCC1(CO)C/C(=C\c2cccc(C(=O)O)c2)C(=O)O1)C(C)C (stereo unspecified)
B: CC(C)C(CC(=O)OCC1(CO)C/C(=C\c2ccccc2O)C(=O)O1)C(C)C (stereo unspecified)
C: CC(C)CC(CC(=O)OCC1(CO)C/C(=C\c2ccccc2C(C(=O)OC(C)(C)C)C(=O)OC(C)(C)C)C(=O)O1)CC(C)C (stereo unspecified)
D: CC(C)C(CC(=O)OCC1(CO)C/C(=C\c2ccc(O)cc2)C(=O)O1)C(C)C (stereo unspecified)
Ranking field: Selectivity ratio; order: falling. Present the labels in the sequence the task asks for.
B, C, D, A
(B: 3.53, C: 1.7, D: 0.5, A: 0.2)

* * *

Species: Mus musculus
assayProcedure: Selectivity ratio of Ki for GST-tagged mouse PKC-delta C1B domain N7R/L20R mutant to Kd for GST-tagged full-length mouse PKC-delta C1B domain
experimentalEndpoint: Selectivity ratio

Examples from the recorded data:
| molecule | Selectivity ratio |
| --- | --- |
| CC(C)C(CC(=O)OCC1(CO)C/C(=C/c2ccc(C(=O)O)cc2)C(=O)O1)C(C)C (configuration not stated) | 60 |
| CC(C)(C)C(=O)OCC1(CO)C/C(=C\c2cccc(C(=O)O)c2)C(=O)O1 (configuration not stated) | 87 |
| CC(C)(C)C(=O)OCC1(CO)C/C(=C\c2ccc(C(=O)O)cc2)C(=O)O1 (configuration not stated) | 78 |
| CC(C)CC(C/C=C1\CC(CO)(COC(=O)C(C)(CO)CO)OC1=O)CC(C)C (configuration not stated) | 9.83 |

a: CC(C)C(CC(=O)OCC1(CO)C/C(=C\c2ccc(C(=O)O)cc2)C(=O)O1)C(C)C (configuration not stated)
b: CC(C)C(CC(=O)OCC1(CO)C/C(=C\c2ccccc2O)C(=O)O1)C(C)C (configuration not stated)
c: CC(C)C(CC(=O)OCC1(CO)C/C(=C\c2cccc(C(=O)O)c2)C(=O)O1)C(C)C (configuration not stated)
Ranking field: Selectivity ratio; order: falling. Present the labels in the sequence the task asks for.
a, b, c
(a: 209, b: 81, c: 21.8)

* * *

Species: Mus musculus
assayProcedure: Selectivity ratio of Ki for GST-tagged mouse PKC-delta C1B domain N7R mutant to Kd for GST-tagged full-length mouse PKC-delta C1B domain
experimentalEndpoint: Selectivity ratio

Examples from the recorded data:
| compound | recordedValue |
| --- | --- |
| CC(C)CC(CC(=O)OCC1(CO)C/C(=C\c2cccc(C(C(=O)OC(C)(C)C)C(=O)OC(C)(C)C)c2)C(=O)O1)CC(C)C (stereo not drawn) | 1.2 |
| CC(C)C(CC(=O)OCC1(CO)C/C(=C\c2ccccc2O)C(=O)O1)C(C)C (stereo not drawn) | 1.12 |
| CC(C)CC(CC(=O)OCC1(CO)C/C(=C\c2ccccc2C(C(=O)OC(C)(C)C)C(=O)OC(C)(C)C)C(=O)O1)CC(C)C (stereo not drawn) | 0.9 |
| CC(C)(C)C(=O)OCC1(CO)C/C(=C\c2cccc(C(=O)O)c2)C(=O)O1 (stereo not drawn) | 1.44 |
| CC(C)CC(CC(=O)OCC1(CO)C/C(=C\c2ccc(C(=O)O)cc2)C(=O)O1)CC(C)C (stereo not drawn) | 1.25 |

A: CC(C)CC(CC(=O)OCC1(CO)C/C(=C\c2cccc(C(=O)O)c2)C(=O)O1)CC(C)C (stereo not drawn)
B: CC(C)C(CC(=O)OCC1(CO)C/C(=C\c2ccc(C(=O)O)cc2)C(=O)O1)C(C)C (stereo not drawn)
C: CC(C)C(CC(=O)OCC1(CO)C/C(=C/c2ccc(C(=O)O)cc2)C(=O)O1)C(C)C (stereo not drawn)
Form: Sort by [Selectivity ratio] Order [ ascending ] Present the labels in the sequence the task asks for.
C, A, B

* * *

Species on record: Mus musculus
assayProcedure: Selectivity ratio of Ki for GST-tagged mouse PKC-delta C1B domain L20R mutant to Kd for GST-tagged full-length mouse PKC-delta C1B domain
experimentalEndpoint: Selectivity ratio

P: CC(C)CC(CC(=O)OCC1(CO)C/C(=C\c2cccc(C(=O)O)c2)C(=O)O1)CC(C)C (stereo unspecified)
Q: CC(C)CC(CC(=O)OCC1(CO)C/C(=C\c2ccc(C(C(=O)OC(C)(C)C)C(=O)OC(C)(C)C)cc2)C(=O)O1)CC(C)C (stereo unspecified)
Of P and Q , whose reported Selectivity ratio is numerically smaller? // respond with label for picked entry
P
(P: 5.33, Q: 17.5)

* * *

assayedSystem: Protein kinase C delta type (Mus musculus, UniProt P28867)
Sequence (P28867 whole entry, the tested form may be a part): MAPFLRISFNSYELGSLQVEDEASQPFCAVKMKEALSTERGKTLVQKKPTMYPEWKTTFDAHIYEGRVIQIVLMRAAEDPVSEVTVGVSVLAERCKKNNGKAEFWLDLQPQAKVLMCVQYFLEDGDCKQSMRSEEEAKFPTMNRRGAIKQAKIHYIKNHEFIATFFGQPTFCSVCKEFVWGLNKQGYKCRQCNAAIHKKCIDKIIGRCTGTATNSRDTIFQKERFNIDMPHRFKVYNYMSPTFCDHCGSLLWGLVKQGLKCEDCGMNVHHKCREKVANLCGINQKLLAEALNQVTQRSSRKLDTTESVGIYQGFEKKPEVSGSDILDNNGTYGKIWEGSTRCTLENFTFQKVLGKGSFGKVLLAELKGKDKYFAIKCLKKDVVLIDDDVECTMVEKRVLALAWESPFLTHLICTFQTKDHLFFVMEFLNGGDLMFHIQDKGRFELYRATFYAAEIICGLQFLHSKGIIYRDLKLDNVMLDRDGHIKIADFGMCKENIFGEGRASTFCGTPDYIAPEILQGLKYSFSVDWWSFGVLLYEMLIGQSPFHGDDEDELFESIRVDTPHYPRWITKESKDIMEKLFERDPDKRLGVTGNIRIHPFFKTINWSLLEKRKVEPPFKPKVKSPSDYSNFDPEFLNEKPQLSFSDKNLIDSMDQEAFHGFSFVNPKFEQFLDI
assayProcedure: Displacement of [20-3H]PDBu from GST-tagged full-length mouse PKC-delta C1B domain expressed in Escherichia coli after 2 to 30 mins by polyethylene glycol precipitation assay in presence of phosphatidylserine
pKd: −log10 of the molar value.
experimentalEndpoint: pKd

| compound | recordedValue |
| --- | --- |
| CC(C)C(CC(=O)OCC1(CO)C/C(=C\c2cccc(O)c2)C(=O)O1)C(C)C (configuration not stated) | 8.61 |

1: CC(C)C(CC(=O)OCC1(CO)C/C(=C\c2ccccc2O)C(=O)O1)C(C)C (configuration not stated)
2: CC(C)CC(CC(=O)OCC1(CO)C/C(=C\c2ccc(C(C(=O)OC(C)(C)C)C(=O)OC(C)(C)C)cc2)C(=O)O1)CC(C)C (configuration not stated)
3: CC(C)(C)C(=O)OCC1(CO)C/C(=C\c2ccc(C(=O)O)cc2)C(=O)O1 (configuration not stated)
Ranking field: pKd; order: falling. Present the labels in the sequence the task asks for.
2, 1, 3

* * *

Species on record: Mus musculus
assayProcedure: Selectivity ratio of Ki for GST-tagged mouse PKC-delta C1B domain N7R/P11R mutant to Kd for GST-tagged full-length mouse PKC-delta C1B domain
experimentalEndpoint: Selectivity ratio

| compound | experimentalEndpoint | recordedValue |
| --- | --- | --- |
| CC(C)C(CC(=O)OCC1(CO)C/C(=C\c2ccccc2O)C(=O)O1)C(C)C (configuration not stated) | Selectivity ratio | 12.5 |
| CC(C)C(CC(=O)OCC1(CO)C/C(=C\c2ccc(C(=O)O)cc2)C(=O)O1)C(C)C (configuration not stated) | Selectivity ratio | 6.79 |
| CC(C)CC(C/C=C1\CC(CO)(COC(=O)C(C)(CO)CO)OC1=O)CC(C)C (configuration not stated) | Selectivity ratio | 30.7 |
| CC(C)(C)C(=O)OCC1(CO)C/C(=C\c2ccc(C(=O)O)cc2)C(=O)O1 (configuration not stated) | Selectivity ratio | 3.49 |
| CC(C)C(CC(=O)OCC1(CO)C/C(=C\c2cccc(C(=O)O)c2)C(=O)O1)C(C)C (configuration not stated) | Selectivity ratio | 2.47 |

P: CC(C)C(CC(=O)OCC1(CO)C/C(=C/c2ccc(C(=O)O)cc2)C(=O)O1)C(C)C (configuration not stated)
Q: CC(C)(C)C(=O)OCC1(CO)C/C(=C\c2cccc(C(=O)O)c2)C(=O)O1 (configuration not stated)
Of P and Q , whose reported Selectivity ratio is numerically smaller? // respond with label for picked entry
P
(P: 3.25, Q: 13.2)

* * *

assayProcedure: Displacement of [20-3H]PDBu from GST-tagged mouse PKC-delta C1B domain S10R mutant expressed in Escherichia coli after 2 to 30 mins by polyethylene glycol precipitation assay in presence of phosphatidylserine
experimentalEndpoint: Ki (nM)
Field format: number, assumed nM, no unit text.

Examples from the recorded data:
| compound | Ki, nM |
| --- | --- |
| CC(C)C(CC(=O)OCC1(CO)C/C(=C\c2cccc(C(=O)O)c2)C(=O)O1)C(C)C (stereo not drawn) | 840 |
| CC(C)CC(CC(=O)OCC1(CO)C/C(=C\c2cccc(C(C(=O)OC(C)(C)C)C(=O)OC(C)(C)C)c2)C(=O)O1)CC(C)C (stereo not drawn) | 0.6 |

For the compound shown here, CC(C)CC(CC(=O)OCC1(CO)C/C(=C\c2ccccc2C(C(=O)OC(C)(C)C)C(=O)OC(C)(C)C)C(=O)O1)CC(C)C (stereo not drawn) , give the reported Ki.
1.5

Item: CC(C)CC(CC(=O)OCC1(CO)C/C(=C\c2cccc(C(=O)O)c2)C(=O)O1)CC(C)C (stereo not drawn)
468

Item: CC(C)CC(CC(=O)OCC1(CO)C/C(=C\c2ccc(C(C(=O)OC(C)(C)C)C(=O)OC(C)(C)C)cc2)C(=O)O1)CC(C)C (stereo not drawn)
0.6

Item: CC(C)CC(CC(=O)OCC1(CO)C/C(=C\c2ccc(C(=O)O)cc2)C(=O)O1)CC(C)C (stereo not drawn)
94

Item: CC(C)CC(C/C=C1\CC(CO)(COC(=O)C(C)(CO)CO)OC1=O)CC(C)C (stereo not drawn)
1120

Item: CCCC(=O)O[C@@H]1[C@@H](C)[C@@]2(O)[C@@H](C=C(CO)C[C@]3(O)C(=O)C(C)=C[C@@H]23)[C@@H]2C(C)(C)[C@]12OC(=O)CCC
0.32
